test system: NCI-H460 lung; assay: NCI-60 one-dose screen, 48 h (100 = growth as untreated, 0 = no growth, -100 = all killed); conditions: 10 µM unless noted
This is part of a sample that, as a whole, favours compounds with a hit. Of some 83,000 tested, about 20% had one in any assay.
Quick reference: growth of the listed items.
Give just the number in %; leave the unit off.

MOLECULE	ASSAYED_TARGET	REPORTED
COc1ccc(C2=C/C(=C\c3ccc(Cl)cc3)C(=O)N2/N=C/c2ccc(Cl)cc2)cc1	NCI-H460 lung	106
O=C(CCCCCCN1CC(=O)N2[C@@H](c3ccc(Cl)cc3)c3[nH]c4ccccc4c3C[C@H]2C1=O)NO	NCI-H460 lung	67.6
CN1CCN(CCOc2ccc(-c3cnc4c(-c5ccc(C(F)(F)F)cc5)cnn4c3)cc2)CC1	NCI-H460 lung	-50.3
COc1cc(-c2nc(NC(C)=O)sc2-c2ccnc(NCCNS(=O)(=O)c3ccccc3)n2)ccc1Cl	NCI-H460 lung	11.8
CC1=NN(c2ccc(Cl)cc2)CC1(C)N=O (stereo not given)	NCI-H460 lung	95.9

Form field: reported growth of CCOC(=O)n1cc(-c2nonc2-c2cn(C)c3ccccc23)c2ccccc21 14.5

Query: growth; subject: CNC(=O)c1cc(Oc2ccc3nc(NC(=O)Nc4ccc(Cl)c(Cl)c4)sc3c2)ccn1 30.8

Param item = CC(=O)N/C(=C1/OC(C(O)C(O)C(O)CO)CN1C)[P+](c1ccccc1)(c1ccccc1)c1ccccc1 (stereo not given) ; retrieve measured growth. 108

Returns the measured growth for the input molecule. Input: CC[C@@H](c1ccc2cc(OC)ccc2c1)C(C)(C)C(=O)F 106

Reported growth, molecule COc1ccccc1NC(=O)c1ccc(/C=C/C(=O)c2nccn2C)cc1 : ____ -43.5

# input molecule: CCOC(=O)c1n[nH]n2c1nc(=O)c1cnn(C)c12 ; wanted: its growth 103

Item under review: COc1ccc2[nH]cc(-c3nc(-c4cn(C)c5ccncc45)cs3)c2c1 . Reported growth? -51

Data request, read-out growth, for CC1=C(C(=O)n2c3ccccc3c3ccccc32)C(c2cccc([N+](=O)[O-])c2)C(C(=O)n2c3ccccc3c3ccccc32)=C(C)N1 102

Which growth value belongs to CCCCN1C(=O)/C(=c2\sc3n(c2=O)NC2C(N=3)N(CC)C(=O)N2CC)c2ccccc21 (stereo not given) ? 35.3

// data source = PubChem BioAssay (NCI)
